Values from patent US20210115124A1

Documented Fold difference (relative to G6.31) across a set of binders
target-system: T1, human VEGF (hVEGF) (human, UniProt P15692 181-395)
T1 construct: also called VEGF-A
T1 sequence: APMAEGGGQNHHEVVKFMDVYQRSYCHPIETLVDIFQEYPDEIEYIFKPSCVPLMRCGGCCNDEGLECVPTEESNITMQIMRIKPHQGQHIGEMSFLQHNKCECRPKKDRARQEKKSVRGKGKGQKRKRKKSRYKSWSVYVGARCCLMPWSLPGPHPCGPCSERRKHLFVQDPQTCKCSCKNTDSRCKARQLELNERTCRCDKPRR
assay-summary: SPR single-cycle
Just the number in fold, nothing appended.

For orientation, consider the following solved cases.
G6.31 HC-I51H (Fab, name in Kabat numbering, V domains shown, Fab) VH: EVQLVESGGGLVQPGGSLRLSCAASGFTISDYWIHWVRQAPGKGLEWVAGHTPAGGYTYYADSVKGRFTISADTSKNTAYLQMNSLRAEDTAVYYCARFVFFLPYAMDYWGQGTLVTVSS VL: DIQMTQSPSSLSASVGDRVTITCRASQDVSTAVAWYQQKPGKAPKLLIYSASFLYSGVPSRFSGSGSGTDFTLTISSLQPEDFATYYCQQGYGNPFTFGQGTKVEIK | 2.5
G6.31 HC-Y59T (Fab, name in Kabat numbering, V domains shown, Fab) VH: EVQLVESGGGLVQPGGSLRLSCAASGFTISDYWIHWVRQAPGKGLEWVAGITPAGGYTYTADSVKGRFTISADTSKNTAYLQMNSLRAEDTAVYYCARFVFFLPYAMDYWGQGTLVTVSS VL: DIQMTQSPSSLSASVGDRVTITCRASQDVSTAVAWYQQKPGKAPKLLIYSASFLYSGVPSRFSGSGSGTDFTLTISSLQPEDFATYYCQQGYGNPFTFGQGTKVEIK | 0.6
G6.31 LC-T97N (Fab, V domains shown, Fab) VH: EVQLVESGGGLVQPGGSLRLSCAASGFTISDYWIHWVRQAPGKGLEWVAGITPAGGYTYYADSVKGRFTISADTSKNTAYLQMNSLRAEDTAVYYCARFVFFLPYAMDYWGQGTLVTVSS VL: DIQMTQSPSSLSASVGDRVTITCRASQDVSTAVAWYQQKPGKAPKLLIYSASFLYSGVPSRFSGSGSGTDFTLTISSLQPEDFATYYCQQGYGNPFNFGQGTKVEIK | 0.8
G6.31 LC-N94A (Fab, V domains shown, Fab) VH: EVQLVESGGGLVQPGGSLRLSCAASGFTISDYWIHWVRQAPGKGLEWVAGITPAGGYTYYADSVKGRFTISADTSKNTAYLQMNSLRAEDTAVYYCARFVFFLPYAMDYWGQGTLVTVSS VL: DIQMTQSPSSLSASVGDRVTITCRASQDVSTAVAWYQQKPGKAPKLLIYSASFLYSGVPSRFSGSGSGTDFTLTISSLQPEDFATYYCQQGYGAPFTFGQGTKVEIK | 0.4

Kindly indicate its recorded Fold difference (relative to G6.31). Item: G6.31 HC-A53R (Fab, name in Kabat numbering, V domains shown, Fab) VH: EVQLVESGGGLVQPGGSLRLSCAASGFTISDYWIHWVRQAPGKGLEWVAGITPRGGYTYYADSVKGRFTISADTSKNTAYLQMNSLRAEDTAVYYCARFVFFLPYAMDYWGQGTLVTVSS VL: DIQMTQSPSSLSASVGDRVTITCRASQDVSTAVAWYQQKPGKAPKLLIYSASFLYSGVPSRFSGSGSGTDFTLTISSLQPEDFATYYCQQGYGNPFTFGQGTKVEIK 3.7
